Biological target: E. coli β-galactosidase (Escherichia coli)
Construct: purchased Sigma G4155
Sequence (P00722 2-1024): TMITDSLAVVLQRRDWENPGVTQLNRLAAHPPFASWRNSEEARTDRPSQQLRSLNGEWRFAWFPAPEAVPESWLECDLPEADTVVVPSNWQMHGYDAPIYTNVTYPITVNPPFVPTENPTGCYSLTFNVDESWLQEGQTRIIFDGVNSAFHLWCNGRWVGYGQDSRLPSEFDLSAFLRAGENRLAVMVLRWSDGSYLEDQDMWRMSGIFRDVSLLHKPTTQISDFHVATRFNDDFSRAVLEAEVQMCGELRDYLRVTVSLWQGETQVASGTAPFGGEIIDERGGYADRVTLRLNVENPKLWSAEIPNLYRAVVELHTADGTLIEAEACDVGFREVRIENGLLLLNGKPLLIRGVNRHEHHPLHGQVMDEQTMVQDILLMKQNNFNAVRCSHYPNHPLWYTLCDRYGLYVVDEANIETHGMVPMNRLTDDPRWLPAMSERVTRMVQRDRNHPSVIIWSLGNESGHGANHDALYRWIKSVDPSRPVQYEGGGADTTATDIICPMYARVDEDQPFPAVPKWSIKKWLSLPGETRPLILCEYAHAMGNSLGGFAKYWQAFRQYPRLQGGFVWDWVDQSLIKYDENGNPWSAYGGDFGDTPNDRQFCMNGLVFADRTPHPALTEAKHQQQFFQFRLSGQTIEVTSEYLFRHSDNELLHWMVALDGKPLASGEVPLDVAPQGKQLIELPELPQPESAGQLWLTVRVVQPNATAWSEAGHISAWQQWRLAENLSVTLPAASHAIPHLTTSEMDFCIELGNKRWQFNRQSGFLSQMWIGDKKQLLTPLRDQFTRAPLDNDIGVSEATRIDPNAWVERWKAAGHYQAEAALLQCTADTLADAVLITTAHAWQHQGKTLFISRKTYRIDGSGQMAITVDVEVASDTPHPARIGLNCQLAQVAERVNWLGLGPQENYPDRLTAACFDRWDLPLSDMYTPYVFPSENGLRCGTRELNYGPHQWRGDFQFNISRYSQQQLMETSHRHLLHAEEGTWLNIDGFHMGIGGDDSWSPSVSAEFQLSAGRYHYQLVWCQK
Experiment: in vitro
Format: biochemical
Settings: PBS pH 7.4, 37° C., HPLC, read-out: TG release t1/2(min)
measurementName: half-life at 4.9 μM

Known results for compounds:
1. CNC(=O)[C@H](Cc1ccc(OS(=O)(=O)Cc2ccc(OC3O[C@H](CO)[C@H](O)[C@H](O)[C@H]3O)cc2)cc1)NC(=O)OC(C)(C)C (stereo partly drawn)    < 5 min
2. CNC(=O)[C@H](Cc1ccc(OS(=O)(=O)Cc2ccc(OC3O[C@H](CO)[C@H](O)[C@H](O)[C@H]3O)c(C(=O)NCCOCCOCCOCCN=[N+]=[N-])c2)cc1)NC(=O)OC(C)(C)C (stereo partly drawn)    < 10 min

Now for another entry.
Req: Quick one: half-life at 4.9 μM of C[N+]1(Cc2ccc(OS(=O)(=O)Cc3ccc(OC4O[C@H](CO)[C@H](O)[C@H](O)[C@H]4O)cc3)cc2)CCCC[C@@H]1C(=O)Nc1ccccc1 (stereo partly drawn) ?
Resp: < 5 min
